Molecular target: Cytochrome P450 2C19 (Homo sapiens)
Experiment: Cytochrome panel assay with activity outcomes
Settings: recombinant CYP, pro-luciferin dealkylation, luminescence, p450-cyp2c19; series mostly up to 57.1 µM
About 5,800 (36%) of roughly 16,000 compounds were called active. About 23% were inconclusive and are not listed. Calls follow the shape of the dose curve; as a rule, active = well fitted curve in the direction sought with a large enough effect; inconclusive = small, poorly fitted or top-dose-only effect, or effect the other way; inactive = no such curve, though single readings can be large or run the other way. The list shows a part of the results.
// classify into active, inactive

Example entries and their recorded answers appear below.
molecule=CS(=O)(=O)N1CCC[C@@]2(CCN(c3ccncc3)C2)C1 assay_target="Cytochrome P450 2C19 (Homo sapiens)" category_label=inactive
molecule=O=C(Nc1ccccc1)c1cc(-c2ccccc2Cl)no1 assay_target="Cytochrome P450 2C19 (Homo sapiens)" category_label=active
molecule=O=C1c2ccccc2C(=O)N1Cc1cc(-c2ccccc2Cl)no1 assay_target="Cytochrome P450 2C19 (Homo sapiens)" category_label=active

*Q* So what was the verdict on COC(=O)c1c(NC(=O)CC2Nc3ccccc3NC2=O)sc(C)c1C (centres undefined) in this test?
*A* active

*Q* Okay, and CC1=C(C(=O)Nc2ccccc2F)C(c2ccsc2)C2=C(CC(c3ccccc3)CC2=O)N1 (centres undefined) ?
*A* active

*Q* Okay, and COc1ccc(O[C@H]2C=C[C@@H](c3ccccc3)O[C@H]2CO/N=C(/C)CCC(=O)OC[C@@H]2O[C@H](c3ccccc3)C=C[C@@H]2Oc2ccc(OC)cc2)cc1 ?
*A* active

*Q* Okay, and O=C(O)[C@H]1C[C@H](C(=O)O)N1 ?
*A* inactive

*Q* Okay, and O=C(CN1CCCC1)N/N=C/c1ccc(-c2cccc(Cl)c2)o1 ?
*A* active

*Q* Okay, and O=S(=O)(c1ccccc1)N1CCC[C@@]2(CCN(C(c3ccccc3)c3ccccc3)C2)C1 ?
*A* inactive

*Q* Okay, and CNc1nc(Cl)nc(NC(C)(C)C)n1 ?
*A* active

*Q* Okay, and O=C(/C=C/c1ccccc1)NC(NC(=S)Nc1ccc(Cl)cc1)C(Cl)(Cl)Cl (centres undefined) ?
*A* active

*Q* Okay, and COc1cccc(N2C(=O)C(CC(=O)Nc3ccccc3)N(C3CCCCC3)C2=O)c1 (centres undefined) ?
*A* active

###

Target: Cytochrome P450 2C19 (Homo sapiens)
Experiment: Cytochrome panel assay with activity outcomes; as to activity, negative = inhibition: % is scaled to controls: 0 for no effect and ±100 for the full control effect
Settings: recombinant CYP, pro-luciferin dealkylation, luminescence, p450-cyp2c19; series mostly up to 57.1 µM
Among all 16,000 compounds or so, about 5,800 (36%) were called active. Not shown: some 23% with an inconclusive outcome. This is one part of the list.
readout.label: activity, negative = inhibition

*Q* What value of activity, negative = inhibition has been reported for the following molecule? CO[C@@H]1COC(=O)[C@H](C)NC(=O)[C@@H](C)COC(=O)CCC[C@H]1C
*A* 15.2% [at 11.4 µM] (inactive)

*Q* Okay, and Cc1nc2cccc([N+](=O)[O-])c2n1CCCN(C)C ?
*A* 37.8% [at 11.4 µM] (inactive)

*Q* Okay, and Cc1cc(N2CCN(C)CC2)n2nc(-c3ccc(Cl)cc3)nc2n1 ?
*A* 4.95% [at 11.4 µM] (inactive)

*Q* Okay, and C/C(=N\NC(N)=S)c1ccc[nH]1 ?
*A* 20.4% [at 11.4 µM] (inactive)

*Q* Okay, and O=S(=O)(O)[C@@H](CO)c1ccccc1 (tested in a mixture with another compound) ?
*A* -9.78% [at 11.4 µM] (inactive)

###

Target: Cytochrome P450 2C19 (Homo sapiens)
Test: Cytochrome panel assay with activity outcomes
Conditions: recombinant CYP, pro-luciferin dealkylation, luminescence, p450-cyp2c19; series mostly up to 57.1 µM
Out of some 16,000 compounds screened, about 5,800 (36%) were called active. Roughly 23% stayed inconclusive and do not appear here. The call rests on the fitted dose curve; in most records, active means well fitted curve in the direction sought with a large enough effect; inconclusive means small, poorly fitted or top-dose-only effect, or effect the other way; inactive means no such curve, though single readings can be large or run the other way. The list shows a part of the results.
// classify into 1 (active), 0 (inactive)

Example entries and their recorded answers appear below.
compound=C#CCCCC(=O)Nc1ccccc1 assay_target="Cytochrome P450 2C19 (Homo sapiens)" category_label=0
compound=O=C(OCC(=O)c1cccs1)c1cccc(C(=O)OCC(=O)c2cccs2)n1 assay_target="Cytochrome P450 2C19 (Homo sapiens)" category_label=1
compound="Cc1cc(C)c(NC(=O)CS(=O)CC(=O)NCCCc2ccccc2)c(C)c1 (stereo not drawn)" assay_target="Cytochrome P450 2C19 (Homo sapiens)" category_label=0
compound=CCN(CC)CCOc1ccc(Cc2ccccc2)cc1 assay_target="Cytochrome P450 2C19 (Homo sapiens)" category_label=1
compound=O=C(NCc1ccccc1)c1onc(CSc2ccc(F)cc2)c1C(=O)NCCCN1CCOCC1 assay_target="Cytochrome P450 2C19 (Homo sapiens)" category_label=1

*Q* So what was the verdict on CN(C)N1C(N)=C(C#N)C(c2cccnc2)C2=C1CC(C)(C)CC2=O (stereo not drawn) in this test?
*A* 0

*Q* Okay, and O=[N+]([O-])c1ccc(Cl)c(-c2ccc(/C=N/c3c(-c4ccco4)nc4ccccn34)o2)c1 ?
*A* 0

*Q* Okay, and CCOC(=O)Oc1c(OC)cc(C(=O)O[C@H]2C[C@H]3CN4CCc5c([nH]c6cc(OC)ccc56)[C@@H]4C[C@H]3[C@@H](C(=O)OC)[C@@H]2OC)cc1OC ?
*A* 0

*Q* Okay, and COc1ccc(C2C(C#N)=C(N)N(Nc3ccccc3)C3=C2C(=O)CC(C)(C)C3)cc1C (stereo not drawn) ?
*A* 1

*Q* Okay, and NC(N)=Nc1nc(CCN2C(=O)c3ccccc3C2=O)cs1 ?
*A* 1

###

Biological target: Cytochrome P450 2C19 (Homo sapiens) (UniProt P33261)
Sequence (P33261 whole entry, looked up): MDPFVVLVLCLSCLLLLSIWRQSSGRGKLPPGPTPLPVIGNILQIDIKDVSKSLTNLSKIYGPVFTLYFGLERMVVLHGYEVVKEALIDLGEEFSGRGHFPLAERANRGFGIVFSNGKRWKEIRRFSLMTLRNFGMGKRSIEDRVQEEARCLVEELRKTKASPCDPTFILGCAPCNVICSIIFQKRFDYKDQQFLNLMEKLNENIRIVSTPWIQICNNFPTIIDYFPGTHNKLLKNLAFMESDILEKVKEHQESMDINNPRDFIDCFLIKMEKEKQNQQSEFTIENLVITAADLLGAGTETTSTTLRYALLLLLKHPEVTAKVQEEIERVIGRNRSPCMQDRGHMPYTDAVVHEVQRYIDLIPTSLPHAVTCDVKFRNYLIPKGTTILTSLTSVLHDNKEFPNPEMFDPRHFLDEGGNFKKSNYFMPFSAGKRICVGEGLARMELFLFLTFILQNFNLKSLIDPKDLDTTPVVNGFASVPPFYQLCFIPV
Experiment: Cytochrome panel assay with activity outcomes
Conditions: recombinant CYP, pro-luciferin dealkylation, luminescence, p450-cyp2c19; series mostly up to 57.1 µM
Screen size: about 16,000 compounds; about 5,800 (36%) were called active. Inconclusive results (about 23%) are left out. Calls follow the shape of the dose curve; as a rule, active = well fitted curve in the direction sought with a large enough effect; inconclusive = small, poorly fitted or top-dose-only effect, or effect the other way; inactive = no such curve, though single readings can be large or run the other way. The list shows a part of the results.
// classify into True = active, False = inactive

compound=Cc1nc(N=Nc2ccc(S(=O)(=O)O)cc2S(=O)(=O)O)c(COP(=O)(O)O)c(C=O)c1O category_label=False
compound=Nc1cc(-c2ccncc2)c[nH]c1=O category_label=True
compound=Nc1nnnn1/N=C\c1ccc(Cl)c([N+](=O)[O-])c1 category_label=True
compound=CN(C)S(=O)(=O)Oc1cccc(C(=O)Nc2ccc(Cl)c(Cl)c2)c1 category_label=True
compound=c1ccc2cc(-c3csnn3)ccc2c1 category_label=True

*Q* So what was the verdict on Cc1ccc(C2/C(=C(/O)c3ccc(Cl)cc3)C(=O)C(=O)N2CC2CCCO2)o1 (configuration not stated) in this test?
*A* False

*Q* Okay, and CC(C)(C)NC[C@H](O)c1cc(O)cc(O)c1 ?
*A* False

*Q* Okay, and O=C(NCCO[N+](=O)[O-])c1cccnc1 ?
*A* True

###

Biological target: Cytochrome P450 2C19 (Homo sapiens)
Test: Cytochrome panel assay with activity outcomes; as to activity, negative = inhibition: % is scaled to controls: 0 for no effect and ±100 for the full control effect
Conditions: recombinant CYP, pro-luciferin dealkylation, luminescence, p450-cyp2c19; series mostly up to 57.1 µM
Among all 16,000 compounds or so, about 5,800 (36%) were called active. Not shown: some 23% with an inconclusive outcome. This is one part of the list.
readout.label: activity, negative = inhibition

query_smiles=C/C(=C\c1ccc(Cl)cc1)C(C)(C)C(=O)O readout_label="activity, negative = inhibition" endpoint_value="-25.9% [at 11.4 µM] (inactive)"

*Q* What value of activity, negative = inhibition has been reported for the following compound? O=C1[C@@H]2[C@@H](C(=O)N1c1ccc(OCc3ccccc3)cc1)[C@@H]1c3ccccc3[C@@H]2[n+]2ccccc21
*A* -10.9% [at 11.4 µM] (inactive)

###

Target: Cytochrome P450 2C19 (Homo sapiens)
Test: Cytochrome panel assay with activity outcomes
Details: recombinant CYP, pro-luciferin dealkylation, luminescence, p450-cyp2c19; series mostly up to 57.1 µM
Out of some 16,000 compounds screened, about 5,800 (36%) were called active. Another 23% or so got no clear call; they are omitted. The list shows a part of the results.
readout.label: AC50

molecule=COc1cccc(CNCCNC(=O)c2nonc2N)c1 endpoint_value="15.8 µM (active)"
molecule=CN(C)C(=O)c1ccc(-c2nc(NCc3cccnc3)c3ccccc3n2)cc1 endpoint_value=inactive
molecule=CCCn1c(=O)c2c(ncn2C)n(CCC)c1=O endpoint_value=inactive
molecule=COc1ccccc1CNc1ncnc2ccc(-c3cccc(NS(C)(=O)=O)c3)cc12 endpoint_value="15.8 µM (active)"
molecule=C=CCN=C(NC#N)SCc1ccccc1 endpoint_value="14.1 µM (active)"

*Q* What value of AC50 has been reported for the following molecule? COCCNc1ncnc2ccc(-c3cccc(NS(C)(=O)=O)c3)cc12
*A* inactive

*Q* Okay, and C/C=C\C[C@H](C)[C@H](O)[C@H]1C(=O)N[C@@H](CC)C(=O)N(C)CC(=O)N(C)[C@@H](CC(C)C)C(=O)N[C@@H](C(C)C)C(=O)N(C)[C@@H](CC(C)C)C(=O)N[C@@H](C)C(=O)N[C@@H](C)C(=O)N(C)[C@@H](CC(C)C)C(=O)N(C)[C@@H](CC(C)C)C(=O)N(C)[C@@H](C(C)C)C(=O)N1C ?
*A* inactive

*Q* Okay, and COc1cccc(-c2cncnc2NCCN2CCOCC2)c1 ?
*A* inactive

*Q* Okay, and COc1ccc(/C=N/NC(=S)NC2CCS(=O)(=O)C2)cc1OC (centres undefined) ?
*A* inactive
